- Test name: endothelial E-selectin expression blockers – imaging, HUVEC, immunofluorescence, MLSMR starter and 10KST1 sets, primary screen (AID 487);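 further: 100% = median nuclei count of all wells on the same plate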
- Protocol conditions: HUVEC TNFalpha-induced E-selectin immunofluorescence imaging, at 2 µM; measured here: cell number, toxicity
Each item that follows carries a reported nuclei count.

1) CCOC(=O)c1c(C)oc2ccc(O)c(CN3CCCCC3)c12; 81.7%

Quick one: nuclei count of CS(=O)(=O)NCc1nnc(SCC(=O)NC2CCCCC2)n1-c1ccc(F)cc1 ?
128%

And for Cc1ccc2c(c1)NC(=O)C(CC(=O)NCCCN1CCN(c3cc(Cl)ccc3C)CC1)O2 (configuration not stated) ?
123%

And for COCC(=O)NC(c1ccccc1)c1ccccc1 ?
122%

And for Cc1ccc(-n2nc(-c3cccs3)cc2C(=O)NCC2CCCO2)c(C)c1 (configuration not stated) ?
110%

And for COc1ccc2cc(CN(Cc3ccco3)C(c3nnnn3C3CCCCC3)C(C)C)c(=O)[nH]c2c1 (configuration not stated) ?
125%

And for CN(C)Cc1cn(CCC(=O)O)c2ccccc12 ?
103%

And for COc1ccc(N(C)C(=O)CCS(=O)(=O)c2cccc3nonc23)cc1 ?
118%
